assay: clinical; details: human, in vivo, iv
Numbered stars: 1 amine (or outer) side, 2 acyl side, 3 side chain; on linkers, the order of the positions; unused ones are H or OH. Bridge positions count the residues as written; N and C are the ends. Square brackets hold non-standard residues; d marks the D form. Peptide text beside a SMILES is read from it. * marks the point of attachment. X2 = O=C1C[C@@H](C(=O)[*:2])N([*:1])C[C@H]1CS[C@@H]1CN2CCC1CC2; NMePhe(4-NMe2) = CN[C@@H](Cc1ccc(N(C)C)cc1)C(=O)O; Picolinoyl(3-OH) = O=C(c1ncccc1O)*; Phg = N[C@H](C(=O)O)c1ccccc1; dAbu = CC[C@@H](N)C(=O)O
Measurement Kind: MRT

As a guide, the following entries are already answered.
## Task For the molecule CCCN(CCC)S(=O)(=O)c1ccc(C(=O)O)cc1 , report MRT.
## Result 8.7 h

## Task For the molecule Cc1onc(-c2ccccc2)c1C(=O)N[C@@H]1C(=O)N2[C@@H]1SC(C)(C)[C@@H]2C(=O)O , report MRT.
## Result 0.5 h

## Task For the molecule Cc1cccc(C)c1NC(=O)C1CCCCN1C (configuration not stated) [MEPIVACAINE] , report MRT.
## Result 2.5 h

## Task For the molecule O=c1c(O)c(-c2ccc(O)c(O)c2)oc2cc(O)cc(O)c12 , report MRT.
## Result 0.2 h

## Task For the molecule Cc1nnc2n1-c1sc(Br)cc1C(c1ccccc1Cl)=NC2 , report MRT.
## Result 6 h

Others:
## Task For the molecule C[C@H]1O[C@@H](n2cc(F)c(=O)[nH]c2=O)[C@H](O)[C@@H]1O , report MRT.
## Result 0.46 h

## Task For the molecule C[C@](N)(Cc1ccc(O)c(O)c1)C(=O)O , report MRT.
## Result 3.3 h

## Task For the molecule CC[C@H]1NC(=O)[C@@H](NC(=O)c2ncccc2O)[C@@H](C)OC(=O)[C@H](c2ccccc2)NC(=O)[C@@H]2CC(=O)[C@H](CS[C@@H]3CN4CCC3CC4)CN2C(=O)[C@H](Cc2ccc(N(C)C)cc2)N(C)C(=O)[C@@H]2CCCN2C1=O [QUINUPRISTIN] ({Picolinoyl(3-OH)}-T[dAbu]P[NMePhe(4-NMe2)][X2][Phg]; ester 1-C) , report MRT.
## Result 0.7 h

## Task For the molecule NCC1(CC(=O)O)CCCCC1 , report MRT.
## Result 7 h

## Task For the molecule C[C@H]1c2cccc(O)c2C(=O)C2=C(O)[C@]3(O)C(=O)C(C(N)=O)=C(O)[C@@H](N(C)C)[C@@H]3[C@@H](O)[C@@H]21.O , report MRT.
## Result 25 h

## Task For the molecule CCC(=O)C1(c2cccc(O)c2)CCN(C)CC1 , report MRT.
## Result 0.87 h

## Task For the molecule CC1(C)S[C@@H]2[C@H](NC(=O)COc3ccccc3)C(=O)N2[C@H]1C(=O)O , report MRT.
## Result 1 h

## Task For the molecule COC(=O)C1=C(C)NC(C)=C(C(=O)OCCN(C)Cc2ccccc2)C1c1cccc([N+](=O)[O-])c1 (configuration not stated) , report MRT.
## Result 1.5 h

## Task For the molecule CCNCC(O)c1cccc(O)c1 (configuration not stated) , report MRT.
## Result 2.5 h

## Task For the molecule CO/N=C(\C(=O)N[C@@H]1C(=O)N2C(C(=O)[O-])=C(C[n+]3cccc4c3CCC4)CS[C@H]12)c1csc(N)n1 , report MRT.
## Result 2.1 h

## Task For the molecule CN(CC(N)=O)C(=O)N(CCCl)N=O , report MRT.
## Result 1.4 h

## Task For the molecule CC1CCCC(C)N1CCCC(O)(c1ccccc1)c1ccccn1 (configuration not stated) , report MRT.
## Result 13 h

* * *

assay: clinical; settings: human, in vivo, iv, Vdss
// log10(Vd) lookup, one value per entry
Please interpret these as log10 of Vd where Vd is in L/kg.

As a guide, the following entries are already answered.
## Task For the molecule Nc1nc(O)c2ncn(COC(CO)CO)c2n1 , report log10(Vd).
## Result 0.00

## Task For the molecule C[C@H]1O[C@@H](O[C@H]2[C@@H](O)C[C@H](O[C@H]3[C@@H](O)C[C@H](O[C@H]4CC[C@@]5(C)[C@H](CC[C@@H]6[C@@H]5CC[C@]5(C)[C@@H](C7=CC(=O)OC7)CC[C@]65O)C4)O[C@@H]3C)O[C@@H]2C)C[C@H](O)[C@@H]1O , report log10(Vd).
## Result -0.36

## Task For the molecule OCCN1CCN(CCCN2c3ccccc3Sc3ccc(Cl)cc32)CC1 , report log10(Vd).
## Result 1.26

## Task For the molecule O=c1c(O)c(-c2ccc(O)c(O)c2)oc2cc(O)cc(O)c12 , report log10(Vd).
## Result -0.92

## Task For the molecule CCC1=C[C@@H]2CN(C1)Cc1c([nH]c3ccccc13)[C@@](C(=O)OC)(c1cc3c(cc1OC)N(C)[C@H]1[C@@](O)(C(=O)OC)[C@H](OC(C)=O)[C@]4(CC)C=CCN5CC[C@]31[C@@H]54)C2 (stereo in doubt; form 1) , report log10(Vd).
## Result 1.08

Others:
## Task For the molecule COc1cc([C@@H]2c3cc4c(cc3[C@@H](O[C@@H]3O[C@@H]5CO[C@@H](c6cccs6)O[C@H]5[C@H](O)[C@H]3O)[C@H]3COC(=O)[C@H]23)OCO4)cc(OC)c1O [TENIPOSIDE] , report log10(Vd).
## Result -0.39

* * *

test: clinical; details: human, in vivo, iv
Measurement Kind: fraction unbound
Just the number, please.

As a guide, the following entries are already answered.
## Task For the compound Nc1nc(NC2CC2)c2ncn([C@H]3C=C[C@@H](CO)C3)c2n1 [ABACAVIR] , report fraction unbound.
## Result 0.5

## Task For the compound NCC[C@H](O)C(=O)N[C@@H]1C[C@H](N)[C@@H](O[C@H]2O[C@H](CN)[C@@H](O)[C@H](O)[C@H]2O)[C@H](O)[C@H]1O[C@H]1O[C@H](CO)[C@@H](O)[C@H](N)[C@H]1O [AMIKACIN] , report fraction unbound.
## Result 0.88

## Task For the compound COc1ccc(CCNCC(O)COc2cccc(C)c2)cc1OC (configuration not stated) [BEVANTOLOL] , report fraction unbound.
## Result 0.015

## Task For the compound C[C@@H](O)[C@H]1C(=O)N2C(C(=O)O)=C(S[C@@H]3CN[C@H](C(=O)Nc4cccc(C(=O)O)c4)C3)[C@H](C)[C@H]12 , report fraction unbound.
## Result 0.1

## Task For the compound CCN[C@@H](C)Cc1cccc(C(F)(F)F)c1 [DEXFENFLURAMINE] , report fraction unbound.
## Result 0.66

## Task For the compound CCCC1C(=O)N2C(N(C)C)=Nc3ccc(C)cc3N2C1=O (configuration not stated) [APAZONE] , report fraction unbound.
## Result 0.004

## Task For the compound CCN(CC)CCS(=O)(=O)[C@@H]1CCN2C(=O)c3coc(n3)CC(=O)C[C@H](O)/C=C(C)/C=C/CNC(=O)/C=C/[C@@H](C)[C@@H](C(C)C)OC(=O)[C@@H]12 [DALFOPRISTIN] , report fraction unbound.
## Result 0.82

## Task For the compound Cc1ccc(C(=O)Nc2ccc(S(=O)(=O)O)c3cc(S(=O)(=O)O)cc(S(=O)(=O)O)c23)cc1NC(=O)c1cccc(NC(=O)Nc2cccc(C(=O)Nc3cc(C(=O)Nc4ccc(S(=O)(=O)O)c5cc(S(=O)(=O)O)cc(S(=O)(=O)O)c45)ccc3C)c2)c1 [SURAMIN] , report fraction unbound.
## Result 0.001

## Task For the compound C[C@H]1[C@H](OC(=O)CCC(=O)O)O[C@@H]2O[C@@]3(C)CC[C@H]4[C@H](C)CC[C@@H]1[C@@]24OO3 [ARTESUNATE] , report fraction unbound.
## Result 0.25

## Task For the compound N[C@@H](Cc1ccc(O)c(O)c1)C(=O)O [LEVODOPA] , report fraction unbound.
## Result 0.76

Others:
## Task For the compound C=C[C@@]1(O)C[N+]2(C)CC[C@H]1C[C@@H]2[C@@H](O)c1ccnc2ccc(OC)cc12 , report fraction unbound.
## Result 0.47

## Task For the compound CCCNC(C)C(=O)Nc1ccccc1C (configuration not stated) [PRILOCAINE] , report fraction unbound.
## Result 0.72

* * *

assay: clinical; conditions: human, in vivo, iv, Vdss
// Vd lookup, one value per entry
Give just the number in L/kg; leave the unit off.

## Task For the compound CN[C@@H](C)Cc1ccccc1 [METHAMPHETAMINE] , report Vd.
## Result 4.3

## Task For the compound CN(C)CCCN1c2ccccc2CCc2ccccc21 [IMIPRAMINE] , report Vd.
## Result 12

## Task For the compound S=P(N1CC1)(N1CC1)N1CC1 [THIOTEPA] , report Vd.
## Result 1.6

## Task For the compound NC1CCN(c2c(F)cc3c(=O)c(C(=O)O)cn(C4CC4)c3c2Cl)C1 (centres undefined) [CLINAFLOXACIN] , report Vd.
## Result 1.9

## Task For the compound CCCCC/C=C\CCC(=O)N[C@H]1[C@H](Oc2c3cc4cc2Oc2ccc(cc2Cl)[C@@H](O[C@@H]2O[C@H](CO)[C@@H](O)[C@H](O)[C@H]2NC(C)=O)[C@@H]2NC(=O)[C@H](NC(=O)[C@@H]4NC(=O)[C@H]4NC(=O)[C@@H](Cc5ccc(c(Cl)c5)O3)NC(=O)[C@H](N)c3ccc(O)c(c3)Oc3cc(O)cc4c3)c3ccc(O)c(c3)-c3c(O[C@H]4O[C@H](CO)[C@@H](O)[C@H](O)[C@@H]4O)cc(O)cc3[C@@H](C(=O)O)NC2=O)O[C@H](CO)[C@@H](O)[C@@H]1O [TEICOPLANIN A2-1] , report Vd.
## Result 1.5

## Task For the compound C=C1CC[C@@]2(O)[C@H]3Cc4ccc(O)c5c4[C@@]2(CCN3CC2CC2)[C@H]1O5 , report Vd.
## Result 8.2

Others:
## Task For the compound O=C1CCC(N2C(=O)c3ccccc3C2=O)C(=O)N1 (centres undefined) [THALIDOMIDE] , report Vd.
## Result 0.95

## Task For the compound CC1=NS(=O)(=O)c2cc(Cl)ccc2N1 [DIAZOXIDE] , report Vd.
## Result 0.21

## Task For the compound Cn1nnnc1SCC1=C(C(=O)O)N2C(=O)[C@@H](NC(=O)[C@H](O)c3ccccc3)[C@H]2SC1 [CEFAMANDOLE] , report Vd.
## Result 0.16
